Test system: PC-3
test_protocol: Cell colony formation assay, PC-3 cells
Type: cell-based, human
conditions_used: 1 nM, 72 hours drug exposure
Label Met when In vitro efficacy: Survival (%) of cells line PC-3 >= 90%; otherwise Not met.

Please review the following examples before continuing.
compound=CC[C@@]1(OC(=O)CO[C@@H]2C[C@H](C)CC[C@H]2C(C)C)C(=O)OCc2c1cc1n(c2=O)Cc2cc3ccccc3nc2-1 category_label=Met
compound="CCC1(OC(=O)COc2cccc(Cl)c2Cl)C(=O)OCc2c1cc1n(c2=O)Cc2cc3ccccc3nc2-1 (centres unmarked)" category_label="Not met"

Please look at the following compound next.
Problem: Could you please find out whether CCC1(OC(=O)COc2cccc(CBr)c2)C(=O)OCc2c1cc1n(c2=O)Cc2cc3ccccc3nc2-1 (centres unmarked) has In vitro efficacy: Survival (%) of cells line PC-3 that meets 90% or exceeds it?
Solution: Met

---

Test system: VM46
test_protocol: Cell colony formation assay, VM46 cells
Format: cell-based
conditions_used: 1 nM, 72 hours drug exposure
readout_label: In vitro efficacy: Survival (%) of cells line VM46
Just the number please, in %, no unit attached.

Problem: Suppose we examine the compound CCC1(OC(=O)COc2cccc(CBr)c2)C(=O)OCc2c1cc1n(c2=O)Cc2cc3ccccc3nc2-1 (stereo not shown) [Example 000501] ; what In vitro efficacy: Survival (%) of cells line VM46 value has been reported?
Solution: 86.60

Problem: Suppose we examine the compound CCC1(OC(=O)COc2ccc(Cl)cc2C)C(=O)OCc2c1cc1n(c2=O)Cc2cc3ccccc3nc2-1 (stereo not shown) [Example 000127] ; what In vitro efficacy: Survival (%) of cells line VM46 value has been reported?
Solution: 47.33

Problem: Suppose we examine the compound CCC1(OC(=O)COc2cccc(Cl)c2Cl)C(=O)OCc2c1cc1n(c2=O)Cc2cc3ccccc3nc2-1 (stereo not shown) [Example 000412] ; what In vitro efficacy: Survival (%) of cells line VM46 value has been reported?
Solution: 50.72

Problem: Suppose we examine the compound CCC1(OC(=O)COc2ccc(F)cc2)C(=O)OCc2c1cc1n(c2=O)Cc2cc3ccccc3nc2-1 (stereo not shown) [Example 000417, camptothecin-20-O-4-fluorophenoxyacetate] ; what In vitro efficacy: Survival (%) of cells line VM46 value has been reported?
Solution: 83.50

Problem: Suppose we examine the compound CCC1(OC(=O)COc2ccc(C=O)cc2)C(=O)OCc2c1cc1n(c2=O)Cc2cc3ccccc3nc2-1 (stereo not shown) [Example 000313] ; what In vitro efficacy: Survival (%) of cells line VM46 value has been reported?
Solution: 41.58

Problem: Suppose we examine the compound CC[C@@]1(OC(=O)COc2ccc(Br)cc2)C(=O)OCc2c1cc1n(c2=O)Cc2cc3ccccc3nc2-1 [Example 000315] ; what In vitro efficacy: Survival (%) of cells line VM46 value has been reported?
Solution: 64.37

Problem: Suppose we examine the compound CCC1(OC(=O)COc2ccc3ccccc3c2)C(=O)OCc2c1cc1n(c2=O)Cc2cc3ccccc3nc2-1 (stereo not shown) [Example 000224] ; what In vitro efficacy: Survival (%) of cells line VM46 value has been reported?
Solution: 62.69

---

System: VM46
test_protocol: Cell colony formation assay, VM46 cells
Type: cell-based
conditions_used: 1 nM, 72 hours drug exposure
readout_label: In vitro efficacy: Survival (%) of cells line VM46
Just the number please, in %, no unit attached.

// worked examples, In vitro efficacy: Survival (%) of cells line VM46 included
compound="CC[C@@]1(O)C(=O)OCc2c1cc1n(c2=O)Cc2cc3ccccc3nc2-1 [CPT, reference compound]" unit_string=% observed=77.64
compound="CC[C@@]1(OC(=O)CO[C@@H]2C[C@H](C)CC[C@H]2C(C)C)C(=O)OCc2c1cc1n(c2=O)Cc2cc3ccccc3nc2-1 [Example 0002031]" unit_string=% observed=74.84
compound="CCC1(OC(=O)COc2ccc3c(c2)OCO3)C(=O)OCc2c1cc1n(c2=O)Cc2cc3ccccc3nc2-1 (stereo not shown) [Example 000419]" unit_string=% observed=75.46
compound="CCC1(OC(=O)COc2c(F)c(F)c(F)c(F)c2F)C(=O)OCc2c1cc1n(c2=O)Cc2cc3ccccc3nc2-1 (stereo not shown) [Example 000410]" unit_string=% observed=68.75
compound="CCC1(OC(=O)COc2ccc(C(C)C)cc2)C(=O)OCc2c1cc1n(c2=O)Cc2cc3ccccc3nc2-1 (stereo not shown) [Example 000418]" unit_string=% observed=79.17

Problem: Suppose we examine the compound CCC1(OC(=O)COc2ccc(OCc3ccccc3)cc2)C(=O)OCc2c1cc1n(c2=O)Cc2cc3ccccc3nc2-1 (stereo not shown) [Example 000425] ; what In vitro efficacy: Survival (%) of cells line VM46 value has been reported?
Solution: 80.46

Problem: Suppose we examine the compound CCC1(OC(=O)COc2ccc3c(C)c(Cl)c(=O)oc3c2)C(=O)OCc2c1cc1n(c2=O)Cc2cc3ccccc3nc2-1 (stereo not shown) [Example 000129] ; what In vitro efficacy: Survival (%) of cells line VM46 value has been reported?
Solution: 28.15

---

Tested on: PC-3
test_protocol: Cell colony formation assay, PC-3 cells
Type: cell-based, human
conditions_used: 1 nM, 72 hours drug exposure
readout_label: In vitro efficacy: Survival (%) of cells line PC-3
Just the number please, in %, no unit attached.

Problem: Suppose we examine the compound CCC1(OC(=O)COc2ccc(I)cc2)C(=O)OCc2c1cc1n(c2=O)Cc2cc3ccccc3nc2-1 (stereo not shown) ; what In vitro efficacy: Survival (%) of cells line PC-3 value has been reported?
Solution: 89.51

Problem: Suppose we examine the compound CCC1(OC(=O)COc2ccc(F)cc2)C(=O)OCc2c1cc1n(c2=O)Cc2cc3ccccc3nc2-1 (stereo not shown) [Example 000417, camptothecin-20-O-4-fluorophenoxyacetate] ; what In vitro efficacy: Survival (%) of cells line PC-3 value has been reported?
Solution: 97.65

Problem: Suppose we examine the compound CCC1(OC(=O)COc2c(F)c(F)c(F)c(F)c2F)C(=O)OCc2c1cc1n(c2=O)Cc2cc3ccccc3nc2-1 (stereo not shown) ; what In vitro efficacy: Survival (%) of cells line PC-3 value has been reported?
Solution: 93.31

Problem: Suppose we examine the compound CCC1(OC(=O)COc2ccc(Cl)cc2C)C(=O)OCc2c1cc1n(c2=O)Cc2cc3ccccc3nc2-1 (stereo not shown) ; what In vitro efficacy: Survival (%) of cells line PC-3 value has been reported?
Solution: 88.97

Problem: Suppose we examine the compound CC[C@@]1(O)C(=O)OCc2c1cc1n(c2=O)Cc2cc3ccccc3nc2-1 [CPT, reference compound] ; what In vitro efficacy: Survival (%) of cells line PC-3 value has been reported?
Solution: 93.85

Problem: Suppose we examine the compound CCC1(OC(=O)COc2ccc(C=O)cc2)C(=O)OCc2c1cc1n(c2=O)Cc2cc3ccccc3nc2-1 (stereo not shown) ; what In vitro efficacy: Survival (%) of cells line PC-3 value has been reported?
Solution: 89.51

Problem: Suppose we examine the compound CCC1(OC(=O)COc2ccc3ccccc3c2)C(=O)OCc2c1cc1n(c2=O)Cc2cc3ccccc3nc2-1 (stereo not shown) ; what In vitro efficacy: Survival (%) of cells line PC-3 value has been reported?
Solution: 87.34

Problem: Suppose we examine the compound CCC1(OC(=O)COc2ccc(OCc3ccccc3)cc2)C(=O)OCc2c1cc1n(c2=O)Cc2cc3ccccc3nc2-1 (stereo not shown) ; what In vitro efficacy: Survival (%) of cells line PC-3 value has been reported?
Solution: 99.28

---

System: VM46
test_protocol: Cell colony formation assay, VM46 cells
Assay type: cell-based
conditions_used: 1 nM, 72 hours drug exposure
readout_label: In vitro efficacy: Survival (%) of cells line VM46
Returns: string containing the number followed by the unit.

// worked examples, In vitro efficacy: Survival (%) of cells line VM46 included
compound="CC(=O)O[C@H]1C(=O)[C@@]2(C)[C@H]([C@H](OC(=O)c3ccccc3)[C@]3(O)C[C@H](OC(=O)[C@H](O)[C@@H](NC(=O)c4ccccc4)c4ccccc4)C(C)=C1C3(C)C)[C@]1(OC(C)=O)CO[C@@H]1C[C@@H]2O [Taxol, reference compound]" observed=80.59%
compound="CCC1(OC(=O)COc2ccc(I)cc2)C(=O)OCc2c1cc1n(c2=O)Cc2cc3ccccc3nc2-1 (stereo not shown)" observed=73.61%
compound="CCCCOCC(=O)OC1(CC)C(=O)OCc2c1cc1n(c2=O)Cc2cc3ccccc3nc2-1 (stereo not shown)" observed=77.50%

Problem: Suppose we examine the compound CCC1(OC(=O)COc2ccccc2[N+](=O)[O-])C(=O)OCc2c1cc1n(c2=O)Cc2cc3ccccc3nc2-1 (stereo not shown) ; what In vitro efficacy: Survival (%) of cells line VM46 value has been reported?
Solution: 76.87%

---

Tested on: C3H/HeJ mice
conditions_used: maximum tolerated dose at day 40, C3H/HeJ mice
readout_label: In Vivo Toxicity MTD40 (ip, mg/kg) in C3H/Hej Mice

// worked examples, In Vivo Toxicity MTD40 (ip, mg/kg) in C3H/Hej Mice included
molecule="CCC1(OC(=O)COc2ccc(I)cc2)C(=O)OCc2c1cc1n(c2=O)Cc2cc3ccccc3nc2-1 (stereo not shown)" observed=">150 mg/kg"
molecule="CCCCOCC(=O)OC1(CC)C(=O)OCc2c1cc1n(c2=O)Cc2cc3ccccc3nc2-1 (stereo not shown)" observed="<150 mg/kg"
molecule="CCC1(OC(=O)COc2c(F)c(F)c(F)c(F)c2F)C(=O)OCc2c1cc1n(c2=O)Cc2cc3ccccc3nc2-1 (stereo not shown)" observed="45 mg/kg"

Problem: Suppose we examine the molecule CC[C@@]1(OC(=O)CO[C@@H]2C[C@H](C)CC[C@H]2C(C)C)C(=O)OCc2c1cc1n(c2=O)Cc2cc3ccccc3nc2-1 ; what In Vivo Toxicity MTD40 (ip, mg/kg) in C3H/Hej Mice value has been reported?
Solution: 100 mg/kg

Problem: Suppose we examine the molecule CCC1(OC(=O)COc2ccc3ccccc3c2)C(=O)OCc2c1cc1n(c2=O)Cc2cc3ccccc3nc2-1 (stereo not shown) ; what In Vivo Toxicity MTD40 (ip, mg/kg) in C3H/Hej Mice value has been reported?
Solution: >150 mg/kg

Problem: Suppose we examine the molecule CCC1(OC(=O)COc2ccccc2[N+](=O)[O-])C(=O)OCc2c1cc1n(c2=O)Cc2cc3ccccc3nc2-1 (stereo not shown) ; what In Vivo Toxicity MTD40 (ip, mg/kg) in C3H/Hej Mice value has been reported?
Solution: >150 mg/kg
